assay: in vitro; settings: rat, liver microsomes
Description: Clearance in rat liver microsomes at 1 uM in presence of NADPH by LC-MS/MS analysis relative to hepatic blood flow
Quick list: hepatic extraction ratio at 1 µM per entry.

The following compounds have reported results that may help.
{"COMPOUND": "O=C(NC[C@@H]1[C@H]2CN(C(=O)/C=C/c3cc(Cl)cc(Cl)c3)C[C@@H]12)c1ccc2[nH]c(=O)oc2c1", "hepatic extraction ratio at 1 µM": "> 0.22"}
{"COMPOUND": "Cc1ccc(COC(=O)N2C[C@@H]3[C@@H](CNC(=O)c4ccc5[nH]c(=O)oc5c4)[C@@H]3C2)nc1", "hepatic extraction ratio at 1 µM": "< 0.22"}
{"COMPOUND": "N#Cc1cc(COC(=O)N2C[C@@H]3[C@@H](CNC(=O)N4CCc5c(O)noc5C4)[C@@H]3C2)cc(C(=O)OC(F)(F)F)c1", "hepatic extraction ratio at 1 µM": "< 0.22"}
{"COMPOUND": "Cc1cc(COC(=O)N2C[C@@H]3[C@@H](CNC(=O)c4ccc5[nH]c(=O)oc5c4)[C@@H]3C2)no1", "hepatic extraction ratio at 1 µM": "< 0.22"}

From here, focus on the item given below.
Q) Which hepatic extraction ratio at 1 µM value belongs to O=C(NC[C@@H]1[C@H]2CN(C(=O)C3CC3c3cc(Cl)cc(Cl)c3)C[C@@H]12)c1ccc2[nH]c(=O)oc2c1 (stereo not given in full) ?
A) > 0.22
